Entries and their measured pIC50 follow.
Biological target: Human Calpain 1/NS1 (Homo sapiens, UniProt P07384)
Sequence (P07384 1-714): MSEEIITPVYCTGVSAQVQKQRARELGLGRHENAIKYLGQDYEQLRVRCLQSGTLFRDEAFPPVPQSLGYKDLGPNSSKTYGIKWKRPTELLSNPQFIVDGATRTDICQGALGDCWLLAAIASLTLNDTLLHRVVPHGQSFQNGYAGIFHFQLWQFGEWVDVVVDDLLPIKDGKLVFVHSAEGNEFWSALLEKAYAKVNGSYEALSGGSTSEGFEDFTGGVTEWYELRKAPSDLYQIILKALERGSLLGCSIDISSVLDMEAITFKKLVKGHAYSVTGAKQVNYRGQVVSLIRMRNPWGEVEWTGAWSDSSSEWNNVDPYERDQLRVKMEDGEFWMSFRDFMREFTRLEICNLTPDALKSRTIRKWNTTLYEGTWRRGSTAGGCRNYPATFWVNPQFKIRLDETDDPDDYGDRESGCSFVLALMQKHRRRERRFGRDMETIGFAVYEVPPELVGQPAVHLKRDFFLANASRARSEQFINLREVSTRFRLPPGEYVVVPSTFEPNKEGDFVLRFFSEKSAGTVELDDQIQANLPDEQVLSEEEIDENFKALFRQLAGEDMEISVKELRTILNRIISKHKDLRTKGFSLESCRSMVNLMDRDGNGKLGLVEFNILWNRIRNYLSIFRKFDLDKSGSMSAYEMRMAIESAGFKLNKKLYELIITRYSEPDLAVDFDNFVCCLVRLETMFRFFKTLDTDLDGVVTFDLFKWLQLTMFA
Sequence (P04632 1-268 partner): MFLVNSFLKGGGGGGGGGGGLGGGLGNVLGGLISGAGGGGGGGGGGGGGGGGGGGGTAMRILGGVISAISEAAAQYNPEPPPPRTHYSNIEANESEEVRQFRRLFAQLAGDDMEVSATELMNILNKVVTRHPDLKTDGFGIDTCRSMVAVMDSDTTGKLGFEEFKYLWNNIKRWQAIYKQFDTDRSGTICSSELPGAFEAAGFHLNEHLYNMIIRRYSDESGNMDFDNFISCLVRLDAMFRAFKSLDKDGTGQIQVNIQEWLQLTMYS
Experiment: Calpain continuous fluorescence (FRET) inhibition assay
Conditions: Column A; SensoLyte 520 FRET substrate, pH 7.5, 25C
pIC50: −log10 of the molar value.

Please review the following examples before continuing.
CC(C)[C@@H]1NC(=O)/C=C/[C@@H](NC(=O)[C@H](C)NC(=O)OC(C)(C)C)COC(=O)[C@H](Cc2ccc(O)cc2)NC1=O :: < 5.00
CC(C)C[C@H](NC(=O)OC(C)(C)C)C(=O)N[C@@H]1/C=C/C(=O)N[C@@H](C(C)C)C(=O)N[C@@H](Cc2ccc(O)cc2)C(=O)OC1 :: > 5.52

# context switch: different molecule, same pIC50
Please state recorded pIC50 (tested on Human Calpain 1/NS1 (Homo sapiens, UniProt P07384)) of CC(C)[C@@H]1NC(=O)/C=C/[C@@H](NC(=O)[C@@H](NC(=O)[C@H](Cc2ccc(O)cc2)NC(=O)OC(C)(C)C)C(C)C)COC(=O)[C@H](C)NC1=O
> 5.52

----------
pIC50: −log10 of the molar value.
These molecules were tested on Human Cathepsin B (Homo sapiens); pIC50 is the recorded read-out.

CC(C)[C@@H]1NC(=O)/C=C/[C@@H](NC(=O)[C@@H](NC(=O)[C@H](Cc2ccccc2)NC(=O)OC(C)(C)C)C(C)C)COC(=O)[C@H](Cc2ccc(O)cc2)NC1=O :: > 5.52
CC(C)[C@@H]1NC(=O)/C=C/[C@@H](N)COC(=O)[C@H](Cc2ccc(O[Si](C)(C)C(C)(C)C)cc2)NC1=O :: < 5.00
CC(C)[C@@H]1NC(=O)/C=C/[C@@H](NC(=O)[C@@H](NC(=O)OCc2ccccc2)C(C)C)COC(=O)[C@H](Cc2ccc(O)cc2)NC1=O :: > 5.52
CC(C)[C@@H]1NC(=O)/C=C/[C@@H](NC(=O)[C@@H](NC(=O)OC(C)(C)C)C(C)C)COC(=O)[C@H](Cc2ccc(O)cc2)NC1=O :: > 5.52
CCCCCC/C=C\CC(=O)N[C@@H](Cc1ccc(O)cc1)C(=O)N[C@H](C(=O)N[C@@H]1/C=C/C(=O)N[C@@H](C(C)C)C(=O)N[C@@H](Cc2ccc(OC)cc2)C(=O)OC1)C(C)C :: > 5.52

I am curious: what pIC50 value has been reported for CC(C)[C@@H]1NC(=O)/C=C/[C@@H](NC(=O)OC(C)(C)C)COC(=O)[C@H](Cc2ccccc2)NC1=O ?
5.00 to 5.52

Now the molecule CC(C)[C@@H]1NC(=O)/C=C/[C@@H](NC(=O)[C@H](Cc2ccccc2)NC(=O)OC(C)(C)C)COC(=O)[C@H](Cc2ccc(O)cc2)NC1=O
5.00 to 5.52

----------
Documented IC50 across a set of molecules
Biological target: UniProt:P07711
Sequence (P07711 114-333): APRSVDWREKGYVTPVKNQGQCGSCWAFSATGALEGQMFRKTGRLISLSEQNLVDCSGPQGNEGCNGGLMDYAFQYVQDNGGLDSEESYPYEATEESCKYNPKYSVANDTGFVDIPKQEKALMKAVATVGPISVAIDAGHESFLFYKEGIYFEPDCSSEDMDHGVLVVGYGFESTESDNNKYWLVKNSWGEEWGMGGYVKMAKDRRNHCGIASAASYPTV

Answered cases to consult:
CC(C)[C@@H]1NC(=O)/C=C/[C@@H](NC(=O)OC(C)(C)C)COC(=O)[C@H](Cc2ccc(O)cc2)NC1=O :: < 3 µM
CC(C)[C@@H]1NC(=O)/C=C/[C@@H](NC(=O)OC(C)(C)C)COC(=O)[C@H](Cc2ccccc2)NC1=O :: < 3 µM

Now turn to the next molecule.
Given CC(C)[C@@H]1NC(=O)/C=C/[C@@H](NC(=O)[C@@H](NC(=O)CNC(=O)OC(C)(C)C)C(C)C)COC(=O)[C@H](Cc2ccc(O)cc2)NC1=O , state its recorded IC50.
< 3 µM

----------
Target: Human Calpain 1/NS1 (Homo sapiens, UniProt P07384)
Assay: Calpain continuous fluorescence (FRET) inhibition assay
Details: Column A; SensoLyte 520 FRET substrate, pH 7.5, 25C
Form field: IC50 (one value per entry).

CC(C)[C@@H]1NC(=O)/C=C/[C@@H](NC(=O)[C@@H](NC(=O)OCc2ccccc2)C(C)C)COC(=O)[C@H](Cc2ccc(O)cc2)NC1=O :: 3 to 10 µM

State the recorded IC50 for this entry: CC(C)[C@@H]1NC(=O)/C=C/[C@@H](NC(=O)OC(C)(C)C)COC(=O)[C@H](Cc2ccccc2)NC1=O
> 10 µM

Repeat for the following compound: CC(C)[C@@H]1NC(=O)/C=C/[C@@H](NC(=O)[C@@H](NC(=O)[C@H](Cc2ccccc2)NC(=O)OC(C)(C)C)C(C)C)COC(=O)[C@H](Cc2ccc(O)cc2)NC1=O
< 3 µM

Now try CCCCCC/C=C\CC(=O)NCC(=O)N[C@H](C(=O)N[C@@H]1/C=C/C(=O)N[C@@H](C(C)C)C(=O)N[C@@H](Cc2ccc(O)cc2)C(=O)OC1)C(C)C .
< 3 µM

----------
Target: Human Calpain 9/NS1 (Homo sapiens, UniProt O14815)
Sequence (O14815 whole entry, one chain of several): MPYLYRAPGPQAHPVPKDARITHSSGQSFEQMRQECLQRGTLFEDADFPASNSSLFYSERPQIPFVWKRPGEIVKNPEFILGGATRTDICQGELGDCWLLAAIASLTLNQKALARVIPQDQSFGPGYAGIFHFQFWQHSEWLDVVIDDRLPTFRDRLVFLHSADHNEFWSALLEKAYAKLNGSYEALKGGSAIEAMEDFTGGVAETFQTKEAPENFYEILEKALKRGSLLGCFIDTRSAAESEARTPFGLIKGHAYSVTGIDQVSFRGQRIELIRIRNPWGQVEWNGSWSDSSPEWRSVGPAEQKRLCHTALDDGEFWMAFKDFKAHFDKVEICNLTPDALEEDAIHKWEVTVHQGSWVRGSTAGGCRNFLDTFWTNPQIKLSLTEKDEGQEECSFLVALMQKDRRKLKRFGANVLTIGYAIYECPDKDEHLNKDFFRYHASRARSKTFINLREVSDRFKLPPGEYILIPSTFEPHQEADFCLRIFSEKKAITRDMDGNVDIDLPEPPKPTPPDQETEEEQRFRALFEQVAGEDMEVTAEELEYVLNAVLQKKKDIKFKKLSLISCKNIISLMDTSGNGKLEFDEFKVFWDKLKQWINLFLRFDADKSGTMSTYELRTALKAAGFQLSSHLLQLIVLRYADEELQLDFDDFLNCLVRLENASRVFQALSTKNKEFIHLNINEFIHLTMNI
Experiment: Calpain continuous fluorescence (FRET) inhibition assay
Settings: Column C; SensoLyte 520 FRET substrate, pH 7.5, 25C
Readout Type: IC50

CC(C)[C@@H]1NC(=O)/C=C/[C@@H](NC(=O)[C@@H](NC(=O)[C@H](Cc2ccc(O)cc2)NC(=O)OC(C)(C)C)C(C)C)COC(=O)[C@H](C)NC1=O :: > 10 µM
CC(C)[C@@H]1NC(=O)/C=C/[C@@H](N)COC(=O)[C@H](Cc2ccc(O[Si](C)(C)C(C)(C)C)cc2)NC1=O :: > 10 µM

Now look at this one.
Consider the compound shown here: CC(C)[C@@H]1NC(=O)/C=C/[C@@H](NC(=O)[C@@H](NC(=O)[C@H](Cc2ccc(O)cc2)NC(=O)OC(C)(C)C)C(C)C)COC(=O)[C@H](Cc2ccc(O)cc2)NC1=O What is its recorded IC50?
> 10 µM

----------
Biological target: Human Calpain 1/NS1 (Homo sapiens)
Test: Calpain continuous fluorescence (FRET) inhibition assay
Format: biochemical
Conditions: Column A; SensoLyte 520 FRET substrate, pH 7.5, 25C
Recorded IC50 for the following molecules

Answered cases to consult:
CC(C)[C@@H]1NC(=O)/C=C/[C@@H](NC(=O)[C@@H](NC(=O)OC(C)(C)C)C(C)C)COC(=O)[C@H](Cc2ccc(O)cc2)NC1=O [Compound 2] :: 3 to 10 µM
CC(C)[C@@H]1NC(=O)/C=C/[C@@H](NC(=O)CNC(=O)[C@H](Cc2ccc(O)cc2)NC(=O)OC(C)(C)C)COC(=O)[C@H](Cc2ccc(O)cc2)NC1=O [Compound 8] :: > 10 µM
CC(C)[C@@H]1NC(=O)/C=C/[C@@H](NC(=O)OC(C)(C)C)COC(=O)[C@H](C)NC1=O [Compound 15] :: > 10 µM
CC(C)[C@@H]1NC(=O)/C=C/[C@@H](NC(=O)OC(C)(C)C)COC(=O)[C@H](Cc2ccc(O)cc2)NC1=O [Compound 1] :: > 10 µM

State the recorded IC50 for this entry: CCCCCC/C=C\CC(=O)N[C@@H](Cc1ccc(O)cc1)C(=O)N[C@H](C(=O)N[C@@H]1/C=C/C(=O)N[C@@H](C(C)C)C(=O)N[C@@H](Cc2ccc(O)cc2)C(=O)OC1)C(C)C [Compound 18]
< 3 µM

Input CCCCCC/C=C\CC(=O)N[C@@H](Cc1ccc(O)cc1)C(=O)N[C@H](C(=O)N[C@@H]1/C=C/C(=O)N[C@@H](C(C)C)C(=O)N[C@@H](Cc2ccc(OC)cc2)C(=O)OC1)C(C)C [Compound 11]
< 3 µM

What about this molecule? CC(C)[C@@H]1NC(=O)/C=C/[C@@H](NC(=O)[C@@H](NC(=O)CNC(=O)OC(C)(C)C)C(C)C)COC(=O)[C@H](Cc2ccc(O)cc2)NC1=O [Compound 7]
3 to 10 µM

And CC(C)[C@@H]1NC(=O)/C=C/[C@@H](NC(=O)[C@@H](NC(=O)[C@H](Cc2ccc(O)cc2)NC(=O)OC(C)(C)C)C(C)C)COC(=O)[C@H](Cc2ccc(O)cc2)NC1=O [Compound 3] ?
< 3 µM

Another molecule to look at: CC(C)[C@@H]1NC(=O)/C=C/[C@@H](NC(=O)[C@H](Cc2ccccc2)NC(=O)OC(C)(C)C)COC(=O)[C@H](Cc2ccc(O)cc2)NC1=O [Compound 14]
> 10 µM

Then what about the molecule CC(C)[C@@H]1NC(=O)/C=C/[C@@H](N)COC(=O)[C@H](Cc2ccc(O[Si](C)(C)C(C)(C)C)cc2)NC1=O [Compound 4] ?
> 10 µM

Please give the result for CCCCCC/C=C\CC(=O)N[C@@H](Cc1ccc(O)cc1)C(=O)N[C@H](C(=O)N[C@@H]1/C=C/C(=O)N[C@@H](C(C)C)C(=O)N[C@@H](C)C(=O)OC1)C(C)C [Compound 16] too.
< 3 µM
